# Tested on: cholesterol biosynthesis in HepG2 cells
# run-description: HepG2 cell culture model - 14C-acetate incorporation assay (cholesterol synthesis)
# Format: cell-based
# condition-label: Homo sapiens, 3-4 hours incubation, 2-14C-acetate incorporation into digitonin-precipitable sterols, vs. vehicle controls, read-out: Sterol Biosynthesis % Inhibition 10µM
Label rule, in plain words: inhibition at 10 µM of 40% and up is 1, under 40% is 0.

Study these solved cases before continuing.
CC(C)=CCC/C(C)=C/CC/C(C)=C/CCCOc1ccc(O)c(CCO)c1 [Example 18]	1
CC(C)=CCC/C(C)=C/CC/C(C)=C/CCCOc1ccccc1O [Example 6]	0
CC(C)=CCC/C(C)=C/CC/C(C)=C/CCCOc1ccc(B2OB(c3ccc(OCCC/C=C(\C)CC/C=C(\C)CCC=C(C)C)cc3)OB(c3ccc(OCCC/C=C(\C)CC/C=C(\C)CCC=C(C)C)cc3)O2)cc1 [Example 29]	1

Prompt: Given the entry CC(C)=CCC/C(C)=C/CC/C(C)=C/CCCOc1cccc(O)c1 [Example 7] , answer whether its inhibition at 10 µM meets or surpasses 40%.
Response: 0

Prompt: Does the compound CC(C)=CCC/C(C)=C/CC/C(C)=C/CCCOc1ccc(O)c(C)c1C [Example 11] have recorded inhibition at 10 µM that is 40% or more?
Response: 1

Prompt: State whether the measured inhibition at 10 µM reaches 40%, counting equality as reaching it, for CC(C)=CCC/C(C)=C/CC/C(C)=C/CCCOc1ccccc1 [Example 5]
Response: 0
